- experimental_system: OX1R (Mus musculus)
- Construct: expressed in transfected cells; host or cells: CHO-K1
- Sequence (P58307 whole entry): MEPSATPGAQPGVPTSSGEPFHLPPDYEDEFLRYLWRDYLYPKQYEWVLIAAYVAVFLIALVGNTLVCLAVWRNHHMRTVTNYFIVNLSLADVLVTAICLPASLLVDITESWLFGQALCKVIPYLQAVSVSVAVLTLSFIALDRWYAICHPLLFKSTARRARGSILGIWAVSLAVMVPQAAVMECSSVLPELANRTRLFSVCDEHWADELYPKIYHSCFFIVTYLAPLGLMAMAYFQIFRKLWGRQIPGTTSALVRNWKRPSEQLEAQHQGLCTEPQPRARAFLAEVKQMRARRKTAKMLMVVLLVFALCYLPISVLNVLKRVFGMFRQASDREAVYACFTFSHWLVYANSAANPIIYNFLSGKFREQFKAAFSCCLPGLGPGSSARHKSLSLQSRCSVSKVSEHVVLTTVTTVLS
- measurement_notes: Inhibition of orexin-peptide-A-induced calcium mobilization in CHO cells, mouse OX1R
- Type: cell-based
- Experimental: MK-1064 was evaluated for its ability to inhibit orexin-peptide-A-induced calcium mobilization in CHO cell lines separately expressing OX1R and OX2R from mice, rats, rabbits, dogs, rhesus monkeys and humans. […]

query_smiles: COc1ccc(CNC(=O)c2cc(-c3cncc(C)c3)ncc2-c2nccs2)nc1OC
Kb: 27.2 µM
--
query_smiles: Cc1ccc(-c2ncccn2)c(C(=O)N2C[C@H](COc3ccc(F)cn3)CC[C@H]2C)c1
Kb: 0.009 µM
--
query_smiles: COc1ccc(CNC(=O)c2cc(-c3cncc(C)c3)ncc2-c2ccccc2)nc1OC
Kb: 7.95 µM
--
query_smiles: COc1ccc(CNC(=O)c2cc(-c3cncc(Cl)c3)cnc2-c2ccccn2)nc1OC
Kb: 10.3 µM
--
query_smiles: COc1ccc(CNC(=O)c2cc(-c3cc(Cl)cc(Cl)c3)cnc2-c2cccnc2)cc1OC
Kb: 0.208 µM

---

pKi: −log10 of the molar value.
Below are pKi values measured for OX2R (Rattus norvegicus, UniProt P56719).

query_smiles: Cc1ccc(-c2ncccn2)c(C(=O)N2C[C@H](COc3ccc(F)cn3)CC[C@H]2C)c1
experimental_system: OX2R (Rattus norvegicus, UniProt P56719)
Sequence (P56719 whole entry): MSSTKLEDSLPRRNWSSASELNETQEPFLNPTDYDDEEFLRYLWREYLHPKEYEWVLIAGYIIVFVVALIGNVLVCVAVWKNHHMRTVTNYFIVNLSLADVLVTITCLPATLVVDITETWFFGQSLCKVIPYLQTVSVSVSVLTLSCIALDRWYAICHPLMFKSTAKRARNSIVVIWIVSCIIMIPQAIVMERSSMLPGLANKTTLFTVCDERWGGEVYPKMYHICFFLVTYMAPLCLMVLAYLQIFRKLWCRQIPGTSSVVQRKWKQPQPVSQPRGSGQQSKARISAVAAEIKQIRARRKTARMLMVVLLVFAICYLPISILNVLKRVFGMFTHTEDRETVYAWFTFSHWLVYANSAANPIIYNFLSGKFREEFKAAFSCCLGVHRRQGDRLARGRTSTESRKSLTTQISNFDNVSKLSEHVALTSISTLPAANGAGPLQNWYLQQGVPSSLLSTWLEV
pKi: 9.66

query_smiles: COc1ccc(CNC(=O)c2cc(-c3cncc(C)c3)ncc2-c2ccccc2)nc1OC
experimental_system: OX2R (Rattus norvegicus, UniProt P56719)
pKi: 9.66

query_smiles: COc1ccc(CNC(=O)c2cc(-c3cc(Cl)cc(Cl)c3)cnc2-c2cccnc2)cc1OC
experimental_system: OX2R (Rattus norvegicus, UniProt P56719)
pKi: 9.74

query_smiles: COc1ccc(CNC(=O)c2cc(-c3cncc(C)c3)ncc2-c2nccs2)nc1OC
experimental_system: OX2R (Rattus norvegicus, UniProt P56719)
pKi: 8.71

query_smiles: COc1ccc(CNC(=O)c2cc(-c3cncc(Cl)c3)cnc2-c2ccccn2)nc1OC
experimental_system: OX2R (Rattus norvegicus, UniProt P56719)
pKi: 9.08

---

- experimental_system: OX2R (Homo sapiens)
- Sequence (O43614 1-444): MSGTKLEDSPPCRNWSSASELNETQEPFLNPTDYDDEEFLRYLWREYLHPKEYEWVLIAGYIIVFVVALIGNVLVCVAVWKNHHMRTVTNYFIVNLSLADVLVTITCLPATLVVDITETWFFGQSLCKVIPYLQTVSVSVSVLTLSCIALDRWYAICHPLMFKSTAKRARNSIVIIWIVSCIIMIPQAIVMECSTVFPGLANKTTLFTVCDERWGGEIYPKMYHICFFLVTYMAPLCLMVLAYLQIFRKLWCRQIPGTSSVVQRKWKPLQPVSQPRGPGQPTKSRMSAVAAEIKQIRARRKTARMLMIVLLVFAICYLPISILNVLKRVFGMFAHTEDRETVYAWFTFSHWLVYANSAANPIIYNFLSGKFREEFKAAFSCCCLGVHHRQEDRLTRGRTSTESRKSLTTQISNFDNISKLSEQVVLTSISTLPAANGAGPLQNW
- measurement_notes: Radio-ligand displacement binding, CHO-K1 membranes, human OX2R
- Set-up: expressed in transfected cells; host or cells: CHO-K1
- experimental_conditions: read-out: OX2R affinity (Ki)
pKi: −log10 of the molar value.
Below, each entry is listed alongside its reported pKi.

compound: COc1ccc(CNC(=O)c2cc(-c3cncc(C)c3)ncc2-c2ccccc2)nc1OC [2-SORA-7]
pKi: 9.33
--
compound: COc1ccc(CNC(=O)c2cc(-c3cc(Cl)cc(Cl)c3)cnc2-c2cccnc2)cc1OC [2-SORA-18]
pKi: 10.00
--
compound: COc1ccc(CNC(=O)c2cc(-c3cncc(Cl)c3)cnc2-c2ccccn2)nc1OC [MK-1064]
pKi: 9.28
--
compound: Cc1ccc(-c2ncccn2)c(C(=O)N2C[C@H](COc3ccc(F)cn3)CC[C@H]2C)c1 [MK-6096]
pKi: 9.51
--
compound: COc1ccc(CNC(=O)c2cc(-c3cncc(C)c3)ncc2-c2nccs2)nc1OC [MK-3697]
pKi: 9.01

---

Below are pKi values measured for OX1R (Macaca mulatta, UniProt F7FE63).
pKi: −log10 of the molar value.
attribute_measured: pKi

query_smiles: COc1ccc(CNC(=O)c2cc(-c3cncc(C)c3)ncc2-c2nccs2)nc1OC
reported_measurement: 5.66
--
query_smiles: COc1ccc(CNC(=O)c2cc(-c3cc(Cl)cc(Cl)c3)cnc2-c2cccnc2)cc1OC
reported_measurement: 6.88
--
query_smiles: COc1ccc(CNC(=O)c2cc(-c3cncc(Cl)c3)cnc2-c2ccccn2)nc1OC
reported_measurement: 6.09
--
query_smiles: COc1ccc(CNC(=O)c2cc(-c3cncc(C)c3)ncc2-c2ccccc2)nc1OC
reported_measurement: 5.87
--
query_smiles: Cc1ccc(-c2ncccn2)c(C(=O)N2C[C@H](COc3ccc(F)cn3)CC[C@H]2C)c1
reported_measurement: 7.90

---

- measurement_notes: Plasma exposure in dogs after oral dosing
- Assay type: in vivo, dog
- experimental_conditions: beagle, dog, plasma, 20 mg/kg oral

compound: COc1ccc(CNC(=O)c2cc(-c3cncc(Cl)c3)cnc2-c2ccccn2)nc1OC [MK-1064]
unit_info: µM
Cmax: 15.3

---

Below are pKi values measured for UniProtKB G1SPJ3.
Sequence (G1SPJ3 1-416): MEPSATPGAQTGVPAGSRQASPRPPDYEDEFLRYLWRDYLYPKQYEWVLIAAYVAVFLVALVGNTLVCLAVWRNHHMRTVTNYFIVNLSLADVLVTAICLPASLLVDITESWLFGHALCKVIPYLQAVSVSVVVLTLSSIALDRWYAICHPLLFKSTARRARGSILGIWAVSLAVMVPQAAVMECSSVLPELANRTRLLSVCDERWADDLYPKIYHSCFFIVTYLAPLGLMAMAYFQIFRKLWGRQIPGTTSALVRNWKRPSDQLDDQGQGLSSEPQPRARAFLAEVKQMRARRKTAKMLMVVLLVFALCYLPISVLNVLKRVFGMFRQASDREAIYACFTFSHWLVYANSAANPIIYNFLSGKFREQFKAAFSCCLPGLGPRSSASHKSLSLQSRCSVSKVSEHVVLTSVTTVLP
pKi: −log10 of the molar value.

query_smiles: COc1ccc(CNC(=O)c2cc(-c3cc(Cl)cc(Cl)c3)cnc2-c2cccnc2)cc1OC
pKi: 6.62

query_smiles: COc1ccc(CNC(=O)c2cc(-c3cncc(Cl)c3)cnc2-c2ccccn2)nc1OC
pKi: 5.61

query_smiles: COc1ccc(CNC(=O)c2cc(-c3cncc(C)c3)ncc2-c2nccs2)nc1OC
pKi: 5.32

query_smiles: Cc1ccc(-c2ncccn2)c(C(=O)N2C[C@H](COc3ccc(F)cn3)CC[C@H]2C)c1
pKi: 8.59

query_smiles: COc1ccc(CNC(=O)c2cc(-c3cncc(C)c3)ncc2-c2ccccc2)nc1OC
pKi: 5.36

---

- experimental_system: OX1R (Canis lupus familiaris, UniProt A0A8I3RSX8)
attribute_measured: log10 of Ki (log10 of the value in µM)

query_smiles: COc1ccc(CNC(=O)c2cc(-c3cncc(C)c3)ncc2-c2nccs2)nc1OC
experimental_system: OX1R (Canis lupus familiaris, UniProt A0A8I3RSX8)
log10 of Ki: 0.49
//
query_smiles: COc1ccc(CNC(=O)c2cc(-c3cncc(Cl)c3)cnc2-c2ccccn2)nc1OC
experimental_system: OX1R (Canis lupus familiaris, UniProt A0A8I3RSX8)
log10 of Ki: 0.11
//
query_smiles: Cc1ccc(-c2ncccn2)c(C(=O)N2C[C@H](COc3ccc(F)cn3)CC[C@H]2C)c1
experimental_system: OX1R (Canis lupus familiaris, UniProt A0A8I3RSX8)
log10 of Ki: -2.57
//
query_smiles: COc1ccc(CNC(=O)c2cc(-c3cc(Cl)cc(Cl)c3)cnc2-c2cccnc2)cc1OC
experimental_system: OX1R (Canis lupus familiaris, UniProt A0A8I3RSX8)
log10 of Ki: -1.07
//
query_smiles: COc1ccc(CNC(=O)c2cc(-c3cncc(C)c3)ncc2-c2ccccc2)nc1OC
experimental_system: OX1R (Canis lupus familiaris, UniProt A0A8I3RSX8)
log10 of Ki: 0.26

---

- experimental_system: OX1R (Canis lupus familiaris, UniProt A0A8I3RSX8)
- Sequence (A0A8I3RSX8 1-427): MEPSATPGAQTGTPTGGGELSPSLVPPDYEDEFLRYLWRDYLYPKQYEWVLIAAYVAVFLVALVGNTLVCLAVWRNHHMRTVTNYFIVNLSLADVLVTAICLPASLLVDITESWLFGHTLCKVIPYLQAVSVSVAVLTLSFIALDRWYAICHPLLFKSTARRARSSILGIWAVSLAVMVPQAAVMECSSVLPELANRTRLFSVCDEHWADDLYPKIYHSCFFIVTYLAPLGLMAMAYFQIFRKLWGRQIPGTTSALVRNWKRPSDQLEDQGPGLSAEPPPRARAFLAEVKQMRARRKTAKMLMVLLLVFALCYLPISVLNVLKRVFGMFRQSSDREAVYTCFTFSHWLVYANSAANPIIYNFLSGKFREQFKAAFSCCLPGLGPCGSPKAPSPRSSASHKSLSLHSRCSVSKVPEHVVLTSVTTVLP
- measurement_notes: Inhibition of orexin-peptide-A-induced calcium mobilization in CHO cells, dog OX1R
- Format: cell-based
attribute_measured: Kb (µM)

compound: COc1ccc(CNC(=O)c2cc(-c3cncc(C)c3)ncc2-c2nccs2)nc1OC [MK-3697]
attribute_measured: Kb
unit_info: µM
relation_symbol: >
reported_measurement: 10
//
compound: COc1ccc(CNC(=O)c2cc(-c3cncc(Cl)c3)cnc2-c2ccccn2)nc1OC [MK-1064]
attribute_measured: Kb
unit_info: µM
relation_symbol: =
reported_measurement: 3.7
//
compound: COc1ccc(CNC(=O)c2cc(-c3cc(Cl)cc(Cl)c3)cnc2-c2cccnc2)cc1OC [2-SORA-18]
attribute_measured: Kb
unit_info: µM
relation_symbol: =
reported_measurement: 0.087
//
compound: Cc1ccc(-c2ncccn2)c(C(=O)N2C[C@H](COc3ccc(F)cn3)CC[C@H]2C)c1 [MK-6096]
attribute_measured: Kb
unit_info: µM
relation_symbol: =
reported_measurement: 0.01
//
compound: COc1ccc(CNC(=O)c2cc(-c3cncc(C)c3)ncc2-c2ccccc2)nc1OC [2-SORA-7]
attribute_measured: Kb
unit_info: µM
relation_symbol: >
reported_measurement: 10
